Test details: Pharmacokinetic assays (plasma and tumor) in nude mice xenografted with MV4-11 cells
Type: in vivo, mouse
Setup conditions: nude, mouse, tumor, po, 3 mg/kg, gilteritinib in tumor; gilteritinib 3, azacitidine 3 mg/kg

Molecule: CCc1nc(C(N)=O)c(Nc2ccc(N3CCC(N4CCN(C)CC4)CC3)c(OC)c2)nc1NC1CCOCC1 [Gilteritinib]
Tmax: 4 h

====

Test details: Pharmacokinetic assays (plasma and tumor) in nude mice xenografted with MV4-11 cells
Format: in vivo, mouse
Setup conditions: nude, mouse, plasma, iv, 3 mg/kg, azacitidine in plasma; gilteritinib 3, azacitidine 3 mg/kg
Method: Plasma samples were prepared by centrifugation (n=3 per group; one sample in the combination group was excluded due to improper handling). […] These assays were conducted by Astellas Research Technologies Co., Ltd. under the guidance of Analysis & Pharmacokinetics Research Laboratories, Astellas Pharma, Inc., or by Nemoto Science Co., Ltd. (Ibaraki, Japan). […] The percent tumor regression was calculated using the formula: […]

Smiles record: Nc1ncn([C@@H]2O[C@H](CO)[C@@H](O)[C@H]2O)c(=O)n1
Tmax / min: 4.8

====

Test details: Pharmacokinetic assays (plasma and tumor) in nude mice xenografted with MV4-11 cells
Format: in vivo, mouse
Setup conditions: nude, mouse, plasma, ip, AraC in plasma; gilteritinib 0, AraC 50, IDR 0.5 mg/kg

Smiles record: Nc1ccn([C@@H]2O[C@H](CO)[C@@H](O)[C@@H]2O)c(=O)n1
Cmax: 28700 ng/mL

====

Test details: Pharmacokinetic assays (plasma and tumor) in nude mice xenografted with MV4-11 cells
Format: in vivo, mouse
Setup conditions: nude, mouse, plasma, iv
Where a name gives a salt, the structure may show the parent alone.

Molecule: CC(=O)[C@]1(O)Cc2c(O)c3c(c(O)c2[C@@H](O[C@H]2C[C@H](N)[C@H](O)[C@H](C)O2)C1)C(=O)c1ccccc1C3=O [IDR, Idarubicin hydrochloride]
half-life [h]: 2.24

====

Test details: Pharmacokinetic assays (plasma and tumor) in nude mice xenografted with MV4-11 cells
Type: in vivo, mouse
Setup conditions: nude, mouse, plasma, ip, 50 mg/kg, AraC in plasma; gilteritinib 3, AraC 50, IDR 0.5 mg/kg
Description: Plasma samples were prepared by centrifugation (n=3 per group; one sample in the combination group was excluded due to improper handling). […] These assays were conducted by Astellas Research Technologies Co., Ltd. under the guidance of Analysis & Pharmacokinetics Research Laboratories, Astellas Pharma, Inc., or by Nemoto Science Co., Ltd. (Ibaraki, Japan). […] The percent tumor regression was calculated using the formula: […]
Measured endpoint: Tmax (min)

Smiles record: Nc1ccn([C@@H]2O[C@H](CO)[C@@H](O)[C@@H]2O)c(=O)n1
Recorded value: 4.98

====

Test details: Pharmacokinetic assays (plasma and tumor) in nude mice xenografted with MV4-11 cells
Format: in vivo, mouse
Setup conditions: nude, mouse, plasma, iv, 0.5 mg/kg
Counter-ions that a name gives are not always drawn.
Measured endpoint: half-life (h)

Molecule: CC(=O)[C@]1(O)Cc2c(O)c3c(c(O)c2[C@@H](O[C@H]2C[C@H](N)[C@H](O)[C@H](C)O2)C1)C(=O)c1ccccc1C3=O [IDR, Idarubicin hydrochloride]
Recorded value: 1.49

====

Test details: Pharmacokinetic assays (plasma and tumor) in nude mice xenografted with MV4-11 cells
Format: in vivo, mouse
Setup conditions: nude, mouse, tumor, po, 3 mg/kg, gilteritinib in tumor; gilteritinib 3, azacitidine 0 mg/kg
Protocol: Plasma samples were prepared by centrifugation (n=3 per group; one sample in the combination group was excluded due to improper handling). […] These assays were conducted by Astellas Research Technologies Co., Ltd. under the guidance of Analysis & Pharmacokinetics Research Laboratories, Astellas Pharma, Inc., or by Nemoto Science Co., Ltd. (Ibaraki, Japan). […] The percent tumor regression was calculated using the formula: […]

Molecule: CCc1nc(C(N)=O)c(Nc2ccc(N3CCC(N4CCN(C)CC4)CC3)c(OC)c2)nc1NC1CCOCC1 [Gilteritinib]
Cmax / ng/g: 387
